system: SCC90 (Head and Neck Carcinoma); assay: Bliss excess, mean over the matrix (fraction); higher = more synergy;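 note: after 72 h of two-drug dosing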
Please go through the items and note down their Bliss excess.
// response body must contain only the number

Prompt: Find the measured Bliss excess of CC1(C)CCC(CN2CCN(c3ccc(C(=O)NS(=O)(=O)c4ccc(NCC5CCOCC5)c([N+](=O)[O-])c4)c(Oc4cnc5[nH]ccc5c4)c3)CC2)=C(c2ccc(Cl)cc2)C1 [Venetoclax] + C[C@@H]1COCCN1C2=NC(=NC(=C2)C3(CC3)[S@](=N)(=O)C)C4=C5C=CNC5=NC=C4 [AZD6738] (first compound max 1 µM, 7x7, partner max 10 µM) with SCC90 (Head and Neck Carcinoma) as test system.
Completion: -0.014

Prompt: Find the measured Bliss excess of CC1(C)CCC(CN2CCN(c3ccc(C(=O)NS(=O)(=O)c4ccc(NCC5CCOCC5)c([N+](=O)[O-])c4)c(Oc4cnc5[nH]ccc5c4)c3)CC2)=C(c2ccc(Cl)cc2)C1 [Venetoclax] + C1CN(CCC1(C(=O)N[C@@H](CCO)C2=CC=C(C=C2)Cl)N)C3=NC=NC4=C3C=CN4 [Capivasertib] (first compound max 1 µM, 7x7, partner max 3 µM) with SCC90 (Head and Neck Carcinoma) as test system.
Completion: 0.0282

Prompt: Find the measured Bliss excess of COc1cccc(OCCCN)c1-c1cc(Nc2cnc(C#N)cn2)n[nH]1 [Prexasertib] + CN(C)CCCOc1ccc(-c2ccc3ncc4c(c3c2)n(C2CCOCC2)c(=O)n4C)cn1 [AZD0156] (first compound max 1 µM, 7x7, partner max 1 µM) with SCC90 (Head and Neck Carcinoma) as test system.
Completion: -0.0634

----------
tested on: TOV-21G (Ovarian Carcinoma); experiment: Bliss excess, mean over the matrix (fraction); higher = more synergy
We use -0.02 as the dividing line for Bliss excess: on or above the line is 1, below is -1.

Prompt: Given the entry COc1nnc2ccc(N3CCC(c4ccc(OCCN5CCN(C)C(=O)[C@H]5C)cc4)CC3)nn12 [AZD5153] + C[C@@H]1COCCN1C2=NC(=NC(=C2)C3(CC3)[S@](=N)(=O)C)C4=C5C=CNC5=NC=C4 [AZD6738] (first compound max 1 µM, 7x7, partner max 10 µM) , answer whether its Bliss excess meets or surpasses -0.02.
Completion: 1

Prompt: Given the entry CC(=O)c1c(C)c2cnc(Nc3ccc(N4CCNCC4)cn3)nc2n(C2CCCC2)c1=O [Palbociclib] + CN(CC[C@H](CSC1=CC=CC=C1)NC2=C(C=C(C=C2)S(=O)(=O)NC(=O)C3=CC=C(C=C3)N4CCC(CC4)[C@H](C5=CC=CC=C5C6=CC=C(C=C6)Cl)O)S(=O)(=O)C(F)(F)F)CCO [AZD4320] (first compound max 10 µM, 7x7, partner max 1 µM) , answer whether its Bliss excess meets or surpasses -0.02.
Completion: -1

Prompt: Given the entry COc1cccc(OCCCN)c1-c1cc(Nc2cnc(C#N)cn2)n[nH]1 [Prexasertib] + O=C(c1cc(Cc2n[nH]c(=O)c3ccccc23)ccc1F)N1CCN(C(=O)C2CC2)CC1 [Olaparib] (first compound max 1 µM, 7x7, partner max 10 µM) , answer whether its Bliss excess meets or surpasses -0.02.
Completion: 1

Prompt: Given the entry COc1cccc(OCCCN)c1-c1cc(Nc2cnc(C#N)cn2)n[nH]1 [Prexasertib] + CCc1c2c(nc3ccc(O)cc13)-c1cc3c(c(=O)n1C2)COC(=O)[C@]3(O)CC [SN-38] (first compound max 1 µM, 7x7, partner max 0.3 µM) , answer whether its Bliss excess meets or surpasses -0.02.
Completion: -1

Prompt: Given the entry CN(CCO)CC[C@H](CSc1ccccc1)Nc1ccc(S(=O)(=O)NC(=O)c2ccc(N3CCC([C@@H](O)c4ccccc4-c4ccc(Cl)cc4)CC3)cc2)cc1S(=O)(=O)C(F)(F)F [AZD4320] + Cc1cc2ncnn2cc1Nc1ncc2c(n1)n(C1CCOCC1)c(=O)n2C [AZD7648] (first compound max 1 µM, 7x7, partner max 10 µM) , answer whether its Bliss excess meets or surpasses -0.02.
Completion: -1

Prompt: Given the entry CN(CCO)CC[C@H](CSc1ccccc1)Nc1ccc(S(=O)(=O)NC(=O)c2ccc(N3CCC([C@@H](O)c4ccccc4-c4ccc(Cl)cc4)CC3)cc2)cc1S(=O)(=O)C(F)(F)F [AZD4320] + C[C@@H](Nc1cc(F)cc(F)c1)c1cc(C(=O)N(C)C)cc2c(=O)cc(N3CCOCC3)oc12 [AZD8186] (first compound max 1 µM, 7x7, partner max 3 µM) , answer whether its Bliss excess meets or surpasses -0.02.
Completion: 1

Cited source for all entries: the supplement of paper PMC11061612
